Tested system: T1, human IgEλ (U266 derived) (human, UniProt P01854-1 1-428)
T1 construct: Whole IgE purified from U266 cells (Ikeyama et al. 1986); labelled with europium cryptate or biotin in some assays; also called human IgE (U266-derived); human IgE lambda
T1 sequence (P01854 other isoform, or with tags, fused parts or gaps): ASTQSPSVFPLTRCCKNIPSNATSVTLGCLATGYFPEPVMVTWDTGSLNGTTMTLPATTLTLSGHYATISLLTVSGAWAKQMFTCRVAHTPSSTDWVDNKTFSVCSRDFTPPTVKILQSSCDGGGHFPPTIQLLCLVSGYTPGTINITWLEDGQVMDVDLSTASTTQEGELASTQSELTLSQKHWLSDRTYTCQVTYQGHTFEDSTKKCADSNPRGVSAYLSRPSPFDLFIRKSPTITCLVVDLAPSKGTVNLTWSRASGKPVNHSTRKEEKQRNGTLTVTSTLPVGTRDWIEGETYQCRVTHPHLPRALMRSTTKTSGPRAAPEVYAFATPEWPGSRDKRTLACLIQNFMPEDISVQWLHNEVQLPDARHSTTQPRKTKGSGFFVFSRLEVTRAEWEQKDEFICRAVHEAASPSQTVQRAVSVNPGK
Assay details: HTRF competition: scFv against Eu-cryptate human IgE binding to human FcεRI-Fc; geomean (95% CI)
Reported property: IC50 (nM)
// return numeric value only (unit: nM, not printed)

Field: example entries. Status: answers known.
Binder	Data value
Antibody 16 scFv (scFv, V domains shown, Purified scFv, non-germlined) VH: QVQLVQSGAEVKKPGATVKLSCKVYGYIFTDYNIYWVRQAPGKGLEWMGLIDPDNGETFYAEKFQGRATMTADTSSDRAYMELTSLTFEDTATYYCATVSLKSAKGGYDYWGRGTLVTVSS VL: QSVLTQPPSVSGAPGQRVTISCTGSSSNIGAGYDVHWYQQLPGTAPKLLIYDNFNRPSGVPDRFSGSKSGTSASLAIIGLQTEDEADYYCQSYDSRHHHAPFGTGTKLTVL	5
Antibody 5 scFv (scFv, V domains shown, Purified scFv, non-germlined; not shown: scFv linker and any tags; the libraries are only cited to Vaughan et al. 1996) VH: QVQLVQSGAEVKKPGATVKLSCKVYGYIFTDYNIYWVRQAPGKGLEWMGLIDPDNGETFYAEKFQGRATMTADTSSDRAYMELTSLTFEDTATYYCATVMGKWIKGGYDYWGRGTLVTVSS VL: QSVLTQPPSVSGAPGQRVTISCTGSSSNIGAGYDVHWYQQLPGTAPKLLIYDNFNRPSGVPDRFSGSKSGTSASLAIIGLQTEDEADYYCQSYDSTKHTSPFGTGTKLTVL	3
Antibody 1 scFv (scFv, V domains shown, Purified scFv, non-germlined; also called parent; not shown: scFv linker and any tags; the libraries are only cited to Vaughan et al. 1996) VH: QVQLVQSGAEVKKPGATVKLSCKVYGYIFTDYNIYWVRQAPGKGLEWMGLIDPDNGETFYAEKFQGRATMTADTSSDRAYMELTSLTFEDTATYYCATVLHRRLKGGYDYWGRGTLVTVSS VL: QSVLTQPPSVSGAPGQRVTISCTGSSSNIGAGYDVHWYQQLPGTAPKLLIYDNFNRPSGVPDRFSGSKSGTSASLAIIGLQTEDEADYYCQSYDSSLSGSLFGTGTKLTVL	475

Quick check: IC50 of Antibody 4 scFv (scFv, V domains shown, Purified scFv, non-germlined; not shown: scFv linker and any tags; the libraries are only cited to Vaughan et al. 1996) VH: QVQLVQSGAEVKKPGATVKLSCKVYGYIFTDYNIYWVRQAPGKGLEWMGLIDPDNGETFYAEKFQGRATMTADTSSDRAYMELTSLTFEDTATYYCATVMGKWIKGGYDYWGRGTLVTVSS VL: QSVLTQPPSVSGAPGQRVTISCTGSSSNIGAGYDVHWYQQLPGTAPKLLIYDNFNRPSGVPDRFSGSKSGTSASLAIIGLQTEDEADYYCQSYDSRGGHSPFGTGTKLTVL ?
2

Give its IC50 value. Item: Antibody 8 scFv (scFv, V domains shown, Purified scFv, non-germlined) VH: QVQLVQSGAEVKKPGATVKLSCKVYGYIFTDYNIYWVRQAPGKGLEWMGLIDPDNGETFYAEKFQGRATMTADTSSDRAYMELTSLTFEDTATYYCATVLGRWIKGGYDYWGRGTLVTVSS VL: QSVLTQPPSVSGAPGQRVTISCTGSSSNIGAGYDVHWYQQLPGTAPKLLIYDNFNRPSGVPDRFSGSKSGTSASLAIIGLQTEDEADYYCQSYDSPTHTSPFGTGTKLTVL
5

Sample Antibody 11 scFv (scFv, V domains shown, Purified scFv, non-germlined) VH: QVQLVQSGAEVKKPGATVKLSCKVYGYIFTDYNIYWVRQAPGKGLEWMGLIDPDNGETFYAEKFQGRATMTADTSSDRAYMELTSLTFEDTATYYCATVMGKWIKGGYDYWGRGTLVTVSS VL: QSVLTQPPSVSGAPGQRVTISCTGSSSNIGAGYDVHWYQQLPGTAPKLLIYDNFNRPSGVPDRFSGSKSGTSASLAIIGLQTEDEADYYCQSYDSPTLTSPFGTGTKLTVL — what was its IC50?
2
